target-of-assay: Voltage-gated inwardly rectifying potassium channel KCNH2 (Homo sapiens) (UniProt Q12809)
Sequence (Q12809 whole entry, looked up): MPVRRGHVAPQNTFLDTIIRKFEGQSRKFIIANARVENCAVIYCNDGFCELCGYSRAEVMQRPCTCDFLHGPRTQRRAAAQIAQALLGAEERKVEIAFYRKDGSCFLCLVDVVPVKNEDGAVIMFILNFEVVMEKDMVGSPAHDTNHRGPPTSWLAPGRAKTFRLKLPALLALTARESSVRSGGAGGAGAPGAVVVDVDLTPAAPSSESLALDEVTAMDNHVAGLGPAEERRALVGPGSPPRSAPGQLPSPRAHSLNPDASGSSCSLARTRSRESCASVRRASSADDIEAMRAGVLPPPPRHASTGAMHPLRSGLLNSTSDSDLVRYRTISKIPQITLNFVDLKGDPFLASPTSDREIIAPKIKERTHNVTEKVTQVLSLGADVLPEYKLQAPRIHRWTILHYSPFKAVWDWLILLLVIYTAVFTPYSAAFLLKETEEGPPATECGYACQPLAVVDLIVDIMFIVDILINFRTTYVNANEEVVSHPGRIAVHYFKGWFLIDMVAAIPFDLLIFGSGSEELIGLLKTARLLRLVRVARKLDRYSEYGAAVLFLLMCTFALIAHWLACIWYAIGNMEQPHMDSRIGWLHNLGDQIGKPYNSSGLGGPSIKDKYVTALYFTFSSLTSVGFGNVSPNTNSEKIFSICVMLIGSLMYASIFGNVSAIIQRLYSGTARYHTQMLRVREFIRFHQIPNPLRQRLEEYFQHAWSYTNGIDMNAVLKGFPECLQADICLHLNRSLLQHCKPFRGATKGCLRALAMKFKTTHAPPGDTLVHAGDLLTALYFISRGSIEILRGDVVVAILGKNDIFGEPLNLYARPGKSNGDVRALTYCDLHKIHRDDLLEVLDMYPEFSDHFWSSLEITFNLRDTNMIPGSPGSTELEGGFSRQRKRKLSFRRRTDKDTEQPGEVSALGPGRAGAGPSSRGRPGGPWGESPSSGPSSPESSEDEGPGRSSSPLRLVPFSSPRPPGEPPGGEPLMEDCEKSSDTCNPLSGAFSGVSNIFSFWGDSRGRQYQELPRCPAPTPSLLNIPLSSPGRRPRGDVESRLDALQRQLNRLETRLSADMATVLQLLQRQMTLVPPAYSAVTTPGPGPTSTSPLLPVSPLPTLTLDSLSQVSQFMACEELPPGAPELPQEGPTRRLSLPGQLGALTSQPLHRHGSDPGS
assay-procedure: qHTS Assay for Small Molecule Inhibitors of the Human hERG Channel Activity (AID 588834);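 further: lower thallium flux fluorescence means stronger hERG block; nearly all actives have a fitted effect of over 50% in size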
run-parameters: U2OS BacMam hERG, FluxOR thallium flux fluorescence; series mostly up to 46.1 µM
Records with an inconclusive call do not appear. Activity calls are given as the source filed them. The call rests on the fitted dose curve; in most records, active means well fitted inhibition curve with a large enough effect; inconclusive means small, poorly fitted or top-dose-only effect; inactive means flat fitted curve, though single readings scatter.
Valid outcomes are listed here; reply with one: TRUE = active, FALSE = inactive

{"columns": ["compound", "category-label"],
 "data": [
  ["Oc1ccc(OCc2ccccc2)cc1", "FALSE"],
  ["CN(C)c1ccc(O)c2c1C[C@H]1C[C@H]3[C@H](N(C)C)C(=O)C(C(N)=O)=C(O)[C@@]3(O)C(=O)C1=C2O", "FALSE"],
  ["COC(=O)C1=C(C)NC(C)=C(C(=O)OCCCN2CCC(c3ccccc3)(c3ccccc3)CC2)C1c1cccc([N+](=O)[O-])c1 (stereo not given)", "TRUE"],
  ["CCC(C)(Oc1ccc(C2(c3ccc(OC(C)(CC)C(=O)O)cc3)CCCCC2)cc1)C(=O)O (stereo not given)", "FALSE"]
]}

Now for a further compound.
Enquiry: Called result for C[Se]CCC(N)C(=O)O (stereo not given)
Return: FALSE

* * *

assay-procedure: qHTS of pediatric cancer cell lines to identify multiple opportunities for drug repurposing: Primary screen for NB1643 cells (AID 1347099); further: nearly all actives have a fitted effect of over 50% in size
run-parameters: NB1643 neuroblastoma viability, CellTiter-Glo luminescence, 48 h; series mostly up to 46 µM
Inconclusive results are not listed. Calls of active or inactive are those of the source. Calls come from the whole dose curve; as a rule, active = well fitted cell-killing curve with a large enough effect; inconclusive = small, poorly fitted or top-dose-only effect; inactive = no such curve, though single readings can be large or run the other way.
Valid outcomes are listed here; reply with one: active, inactive

See these solved cases before continuing.
{"columns": ["molecule", "category-label"],
 "data": [
  ["NC(=O)Cc1cccc(C(=O)c2ccccc2)c1N", "inactive"],
  ["C=CCc1cc(OC)c(O)c(C(=O)NCCO)c1", "inactive"],
  ["Cc1cccc(-c2[nH]ncc2-c2ccc3ncccc3n2)n1", "inactive"]
]}

Enquiry: Called result for CCCc1cc(=O)[nH]c(=S)[nH]1
Return: inactive

Enquiry: Called result for Cc1ncc([N+](=O)[O-])n1CC(C)O (stereo unspecified)
Return: inactive

Enquiry: Called result for COc1c2occc2cc2ccc(=O)oc12
Return: inactive

Enquiry: Called result for O=C1CCc2ccc(OCCCCN3CCN(c4cccc(Cl)c4Cl)CC3)cc2N1
Return: inactive

Enquiry: Called result for COc1ccc(C2(C#N)CCC(C(=O)O)CC2)cc1OC1CCCC1 (stereo unspecified)
Return: active

Enquiry: Called result for CC(C)c1ccc2c(c1)c(SC(C)(C)C)c(CC(C)(C)C(=O)O)n2Cc1ccc(Cl)cc1
Return: active

Enquiry: Called result for CN(C)c1ccc(O)c2c1C[C@H]1C[C@H]3[C@H](N(C)C)C(=O)C(C(N)=O)=C(O)[C@@]3(O)C(=O)C1=C2O
Return: inactive

Enquiry: Called result for Clc1ccc(C(Cn2ccnc2)OCc2ccsc2Cl)c(Cl)c1 (stereo unspecified)
Return: active

* * *

Test system: CP262
assay-procedure: qHTS profiling for inhibitors of Plasmodium falciparum proliferation (AID 504749);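 further: 0% = DMSO vehicle and full inhibition = artemisinin control; nearly all actives have a fitted effect of over 60% in size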
run-parameters: P. falciparum in erythrocytes, SYBR Green DNA, 72 h; series mostly up to 28.7 µM
Results filed as inconclusive are left out. Activity calls are given as the source filed them. Calls follow the shape of the dose curve; as a rule, active = well fitted inhibition curve with a large enough effect; inconclusive = small, poorly fitted or top-dose-only effect; inactive = flat fitted curve, though single readings scatter. Peptide text beside a SMILES is read from it.
Valid outcomes are listed here; reply with one: 1 = active, -1 = inactive

See these solved cases before continuing.
{"columns": ["molecule", "category-label"],
 "data": [
  ["Cc1cc2c(s1)Nc1ccccc1N=C2N1CCN(C)CC1", -1],
  ["COC(=O)[C@H](Cc1ccccc1)NC(=O)[C@@H](N)CC(=O)O (H-Asp-Phe-OMe)", -1],
  ["Cc1nc(Nc2ncc(C(=O)Nc3c(C)cccc3Cl)s2)cc(N2CCN(CCO)CC2)n1", -1],
  ["CCC(C)(Oc1ccc(C2(c3ccc(OC(C)(CC)C(=O)O)cc3)CCCCC2)cc1)C(=O)O (configuration not stated)", -1],
  ["CCCCCCCCOc1ccccc1C(=O)Nc1ccc(C(=O)OCC[N+](C)(CC)CC)cc1", -1]
]}

Now for a further molecule.
Enquiry: Called result for CC1=C(C)C(=O)C(C(CCCCCC(=O)O)c2ccccc2)=C(C)C1=O (configuration not stated)
Return: -1
